- EXPERIMENTAL_TARGET: FUBP1 KH3-4 (UniProt Q96AE4 275-443)
- Sequence (Q96AE4 275-443): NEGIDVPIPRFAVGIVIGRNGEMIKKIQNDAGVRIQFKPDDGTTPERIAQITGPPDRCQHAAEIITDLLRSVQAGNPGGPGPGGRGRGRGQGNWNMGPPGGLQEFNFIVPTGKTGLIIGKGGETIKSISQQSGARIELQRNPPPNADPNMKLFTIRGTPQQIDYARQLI
- EXPERIMENT_SUMMARY: ITC; 150 mM NaCl; range given for the three tandems; ITC: 25 mM HEPES pH 7.5, 50 mM NaCl (150 mM for tandem and KH1-4), 0.5 mM TCEP, 20 C; native PAGE: 200 uM protein, 5x ssDNA, 25 mM HEPES pH 7.5, 50 mM NaCl, 0.5 mM TCEP, 4 C, 0.5x TBE (KH4 0.5x TAE)
- STATED_CONDITIONS: protein: recombinant; tags: His6 removed by TEV
ASSAY_READOUT: Kd

Specify reported Kd for the binder shown: ATGTATATTCCCTCGGGATTTTTTATTTTGTGTTATTCCACGGCATG (ssDNA) [47-mer c-Myc FUSE]
~5.29 µM
